Study system: T1, monkey CEA expressed on CHO cell surface (cynomolgus monkey)
T1 construct: also called cynoCEA-CHO; monkey CEA proteins on the cell surface
T1 chain: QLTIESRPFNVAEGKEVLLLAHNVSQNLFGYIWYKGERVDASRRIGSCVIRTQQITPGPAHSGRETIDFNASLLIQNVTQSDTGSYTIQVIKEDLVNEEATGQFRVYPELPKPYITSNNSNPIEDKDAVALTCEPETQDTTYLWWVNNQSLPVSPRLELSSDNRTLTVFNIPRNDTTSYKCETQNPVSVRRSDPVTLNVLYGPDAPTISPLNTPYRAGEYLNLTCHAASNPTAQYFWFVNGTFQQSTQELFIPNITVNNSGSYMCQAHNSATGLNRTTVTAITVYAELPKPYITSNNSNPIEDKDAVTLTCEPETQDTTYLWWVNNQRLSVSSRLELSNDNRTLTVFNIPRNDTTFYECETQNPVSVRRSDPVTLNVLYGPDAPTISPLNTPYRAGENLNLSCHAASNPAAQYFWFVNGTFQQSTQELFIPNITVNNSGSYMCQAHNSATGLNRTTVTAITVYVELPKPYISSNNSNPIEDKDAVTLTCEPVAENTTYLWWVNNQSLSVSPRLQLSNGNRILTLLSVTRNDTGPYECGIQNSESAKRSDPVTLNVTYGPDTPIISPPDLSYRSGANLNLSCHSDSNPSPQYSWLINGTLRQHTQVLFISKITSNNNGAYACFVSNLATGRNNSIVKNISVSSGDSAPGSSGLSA
Method: FACS, cynoCEA-CHO cells
Observed property: pEC50
Formally, pEC50 is defined as -log10 of the concentration c, with c in mol/L.

Request: Give its pEC50 value. Item: Hu63-10 (antibody, human IgG1, kappa, V domains shown) VH: EVQLVQSGAEVKKPGASVKVSCKASGYTFTDFYMNWVRQAPGQGLEWIGDIFPKNGNTDYNRKFKDKATLTVDKSTSTVYMEFRSLRSEDTAVYYCARSGYGNYVFDYWGQGTLVTVSS VL: DIQMTQSPSSLSASVGDRVTITCRTSQDINIYLNWYQQKPGKAPKLLIYYRSGLLSGVPSRFSGSGSGTDFTLTISSLQPEDFATYYCQQGNTLPPTFGGGTKVEIKR
Response: 8.73

Request: Would you mind doing Hu67-12 (antibody, V domains shown) VH: EVQLVQSGAEVKKPGESLKISCKGSGYSFTDYHMNWVKQMPGKGLEWMGDINPDIGGTSYNQNFKGKVTISVDKSISTAYLQWSSLKASDTAMYYCARWDFDSFANWGQGTLVTVSS VL: EIVMTQSPATLSVSPGERATLSCRASESVSIIGTNLIHWYQQKPGQAPRLLIYHASNLETGIPARFSGSGSGTEFTLTISSLQSEDFAVYYCLQSRKIPYTFGGGTKVEIKR as well?
Response: 8.27

Read the next record carefully.
Request: Give its pEC50 value. Item: Hu47-10 (antibody, human IgG1, kappa, V domains shown) VH: EVQLVQSGSELKKPGASVKVSCKASGYTFTTYGMSWVKQAPGQGLKWMGWINTYSGVPTYADDFKGRFVFSLDTSVSTAYLQISSLKAEDTAVYYCARRGNYGRWDFDVWGQGTTVTVSS VL: EIVLTQSPDFQSVTPKEKVTITCSVSSTISSSNLHWYQQKPDQSPKPLIYGTSNLASGVPSRFSGSGSGTDYTLTINSLEAEDAATYYCQQWSIYPLTFGQGTKLEIKR
Response: 9.57
